Test: self-splicing fitness, log relative to wild type (ln ratio); higher = more splicing; Tetrahymena group I intron in knt gene, E. coli kanamycin selection, DiMSum; sequences stand for … in CUCUCU…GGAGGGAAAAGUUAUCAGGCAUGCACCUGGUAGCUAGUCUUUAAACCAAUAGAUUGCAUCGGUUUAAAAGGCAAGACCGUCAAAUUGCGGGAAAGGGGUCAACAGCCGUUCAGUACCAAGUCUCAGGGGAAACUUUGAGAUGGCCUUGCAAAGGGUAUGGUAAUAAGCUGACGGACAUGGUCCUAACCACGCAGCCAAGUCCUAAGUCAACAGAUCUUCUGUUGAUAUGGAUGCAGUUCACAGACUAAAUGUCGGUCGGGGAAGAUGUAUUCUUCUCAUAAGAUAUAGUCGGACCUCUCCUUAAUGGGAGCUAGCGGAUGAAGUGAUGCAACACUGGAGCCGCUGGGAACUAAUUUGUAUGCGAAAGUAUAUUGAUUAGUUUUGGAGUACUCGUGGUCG;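 also: selection with 25 µg/mL kanamycin versus none on LB agar overnight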
Settings: 30 °C
TEST_READOUT: self-splicing fitness (ln)
# print the numeric value only

Completed entries (count: 5):
1) CGCCAGCAAUAUUACGGAAU | -2.95
2) GAUCAGCAAUAUUACGGAUG | -1.19
3) UAUUAGCAAUAUUACGUAUA | -1.6
4) AACAAGCAAUAUUACGCUAU | -2.25
5) UUUAAGCAAUAUUACGACGG | -0.639

Identify measured self-splicing fitness (ln) associated with `AGGUAGCAAUAUUACGUAGU`
-3.12

Identify measured self-splicing fitness (ln) associated with `AACUAGCAAUAUUACGUCGC`
-2.63

###

Assay: self-splicing fitness, log relative to wild type (ln ratio); higher = more splicing; Tetrahymena group I intron in knt gene, E. coli kanamycin selection, DiMSum; sequences stand for … in CUCUCU…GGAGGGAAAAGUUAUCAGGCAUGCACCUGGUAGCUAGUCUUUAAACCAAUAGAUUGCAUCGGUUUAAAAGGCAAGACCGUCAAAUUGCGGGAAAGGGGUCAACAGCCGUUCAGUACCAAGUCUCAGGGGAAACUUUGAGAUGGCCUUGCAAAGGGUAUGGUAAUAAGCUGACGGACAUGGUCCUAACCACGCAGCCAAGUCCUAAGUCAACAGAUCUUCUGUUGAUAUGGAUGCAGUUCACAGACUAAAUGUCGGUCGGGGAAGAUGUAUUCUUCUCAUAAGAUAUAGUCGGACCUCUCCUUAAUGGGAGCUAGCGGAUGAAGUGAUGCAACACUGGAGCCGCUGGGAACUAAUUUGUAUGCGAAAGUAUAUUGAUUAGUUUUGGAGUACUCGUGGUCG
Conditions: 30 °C
Some sequences, each annotated with its measured self-splicing fitness (ln).
# print the numeric value only

Completed entries (count: 5):
1. AAUGAGCAAUAUUACGGACA | -2.93
2. ACCGAGCAAUAUUACGGUUC | -3.5
3. GUAAAGCAAUAUUACGGCAC | 0.217
4. AUUUAGCAAUAUUACGGGAA | -2.24
5. CGCCAGCAAUAUUACGUGCU | -3.27

Identify measured self-splicing fitness (ln) associated with `GCCCAGCAAUAUUACGAUUU`
-1.07

###

Experiment: self-splicing fitness, log relative to wild type (ln ratio); higher = more splicing; Tetrahymena group I intron in knt gene, E. coli kanamycin selection, DiMSum; sequences stand for … in CUCUCU…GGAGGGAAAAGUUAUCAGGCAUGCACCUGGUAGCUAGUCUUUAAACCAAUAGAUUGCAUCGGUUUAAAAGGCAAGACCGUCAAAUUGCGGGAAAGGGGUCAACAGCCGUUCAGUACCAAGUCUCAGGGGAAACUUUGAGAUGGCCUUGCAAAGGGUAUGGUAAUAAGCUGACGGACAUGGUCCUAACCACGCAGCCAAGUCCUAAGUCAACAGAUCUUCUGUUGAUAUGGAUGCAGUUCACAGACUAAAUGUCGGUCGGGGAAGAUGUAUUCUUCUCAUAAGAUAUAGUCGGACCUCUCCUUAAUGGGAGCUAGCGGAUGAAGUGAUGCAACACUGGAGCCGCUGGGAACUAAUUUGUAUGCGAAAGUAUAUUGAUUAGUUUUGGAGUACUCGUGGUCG
Details: 30 °C
Assign T whenever self-splicing fitness (ln) does not fall below -3; assign F whenever it does.

1) UAGAAGCAAUAUUACGCGAC | F
2) AAGCAGCAAUAUUACGAGGC | T
3) GCGAAGCAAUAUUACGGUAG | F
4) CUGAAGCAAUAUUACGCACC | T
5) AGCUAGCAAUAUUACGAACG | T

Is the recorded value of self-splicing fitness (ln) equal to or greater than -3 for this sequence? `UCACAGCAAUAUUACGAUAC`
F

Is the recorded value of self-splicing fitness (ln) equal to or greater than -3 for this sequence? `GUGUAGCAAUAUUACGCUUG`
T

Is the recorded value of self-splicing fitness (ln) equal to or greater than -3 for this sequence? `UACCAGCAAUAUUACGCGCU`
F

Is the recorded value of self-splicing fitness (ln) equal to or greater than -3 for this sequence? `GGCCAGCAAUAUUACGCAUA`
T

Is the recorded value of self-splicing fitness (ln) equal to or greater than -3 for this sequence? `UUAUAGCAAUAUUACGAAUC`
T

Is the recorded value of self-splicing fitness (ln) equal to or greater than -3 for this sequence? `UUGGAGCAAUAUUACGAUGC`
T

Is the recorded value of self-splicing fitness (ln) equal to or greater than -3 for this sequence? `AAGCAGCAAUAUUACGUUUU`
F

Is the recorded value of self-splicing fitness (ln) equal to or greater than -3 for this sequence? `AGACAGCAAUAUUACGUCCU`
T

Is the recorded value of self-splicing fitness (ln) equal to or greater than -3 for this sequence? `AGUUAGCAAUAUUACGCUUA`
T
